Listed here: items and their measured log2 fold change of degron read counts.
Molecular target: T1, CRBN, Q96SW2;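 note: pooled lentiviral library of zinc finger degron-EGFP fusions in mCherry-positive Jurkat cells, FACS-sorted after compound exposure, with degron abundance counted by next-generation sequencing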
T1 chain: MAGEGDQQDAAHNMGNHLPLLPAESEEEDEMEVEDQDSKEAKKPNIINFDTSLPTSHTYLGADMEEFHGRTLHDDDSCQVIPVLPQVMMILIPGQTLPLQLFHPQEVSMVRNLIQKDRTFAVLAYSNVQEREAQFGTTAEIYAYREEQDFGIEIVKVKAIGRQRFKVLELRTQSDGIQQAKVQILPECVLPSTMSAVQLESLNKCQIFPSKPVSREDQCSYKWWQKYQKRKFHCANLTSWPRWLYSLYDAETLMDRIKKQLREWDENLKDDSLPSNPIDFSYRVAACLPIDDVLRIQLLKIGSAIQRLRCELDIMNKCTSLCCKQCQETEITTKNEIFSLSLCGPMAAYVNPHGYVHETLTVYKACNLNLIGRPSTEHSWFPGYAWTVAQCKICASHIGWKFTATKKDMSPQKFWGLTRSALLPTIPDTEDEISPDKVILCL
Experiment: log2 fold change of degron read counts, EGFP-low vs EGFP+ sorted cells (limma voom), compound-induced degradation; higher = more compound-induced degradation of the degron-EGFP fusion; degrons are variants of IKZF1/3 zinc finger 2; compound dose not given here
Settings: Jurkat; 18 h; compound: compound 22 (5-morpholino-thalidomide)
Whole data set: some 8,300 sequences, median “log2 fold change of degron read counts, EGFP-low vs EGFP+ sorted cells (limma voom), compound-induced degradation” near -1.1, cut for the highest 2% near 3.2. The entries come from a sample that favours the highest values as a whole.
endpointName: log2 fold change of degron read counts

| inputSequence | observed |
| --- | --- |
| FMCDICGACFTQKGNLLRHIKL [46F_47M_49D_50I_52G_53A_54C_55F_67L_, Q9UKT9] | -0.637 |
| FACNQCGAFFTQKGNLLRHIKL [46F_47A_49N_50Q_52G_53A_54F_55F_67L_, Q9UKT9] | -2.14 |
| FECDICGACFTQKGNLLRHIKL [46F_47E_49D_50I_52G_53A_54C_55F_67L_, Q9UKT9] | -2.76 |
| FRCDICGACFTQKGNLLRHIKL [46F_47R_49D_50I_52G_53A_54C_55F_67L_, Q9UKT9] | -1.11 |
